systemUnderTest: T1, recombinant SARS-CoV-2 Spike RBD domain, BA.2 variant (SARS-CoV-2)
T1 construct: also called RBD BA.2. variant
assayProtocol: competition ELISA, blocking of RBD binding to ACE2 ectodomain
parameter: Blocking % (%)

binder	numericReadout
SPK002M B1 antibody (antibody, human IgG1, kappa, V domains shown) VH: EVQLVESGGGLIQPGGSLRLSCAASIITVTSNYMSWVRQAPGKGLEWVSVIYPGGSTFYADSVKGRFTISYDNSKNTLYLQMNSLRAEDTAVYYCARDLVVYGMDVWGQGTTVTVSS VL: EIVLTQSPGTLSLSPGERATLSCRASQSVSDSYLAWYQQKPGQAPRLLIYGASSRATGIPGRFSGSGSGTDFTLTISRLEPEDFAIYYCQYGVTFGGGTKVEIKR	95
SPK002M A5 antibody (antibody, human IgG1, kappa, V domains shown) VH: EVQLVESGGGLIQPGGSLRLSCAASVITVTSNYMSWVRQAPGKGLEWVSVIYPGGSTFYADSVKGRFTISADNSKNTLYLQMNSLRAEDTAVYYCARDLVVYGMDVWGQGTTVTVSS VL: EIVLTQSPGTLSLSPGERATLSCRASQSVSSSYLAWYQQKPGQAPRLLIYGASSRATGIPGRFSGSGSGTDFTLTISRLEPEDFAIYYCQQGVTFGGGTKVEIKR	93
SPK002M A3 antibody (antibody, human IgG1, kappa, V domains shown) VH: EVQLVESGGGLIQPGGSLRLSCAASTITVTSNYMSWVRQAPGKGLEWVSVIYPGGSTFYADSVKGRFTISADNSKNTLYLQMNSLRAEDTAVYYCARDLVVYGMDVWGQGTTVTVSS VL: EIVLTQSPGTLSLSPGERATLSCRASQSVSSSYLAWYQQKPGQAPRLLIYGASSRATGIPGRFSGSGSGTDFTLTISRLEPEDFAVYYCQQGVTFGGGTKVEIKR	94
